- Test system: THRa homodimer (NR concentration 90 nM)
- Experiment summary: PBM binding z-score (relative to random genomic background probes); higher = stronger binding; sequences stand for … in GC…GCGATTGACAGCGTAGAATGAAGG
Property measured: PBM binding z-score
Please state the value as a number alone, without comment.

Provide measured PBM binding z-score value, entry: ATACCAAGGTGATCGTGAGGTCGCTGATACTAAC
2.48

Provide measured PBM binding z-score value, entry: GTACCAAGGTAAATAGGTCGTTGATGAGTAGGCG
-0.00878

Provide measured PBM binding z-score value, entry: TAGCCTAGGTCATTCAGGGTCCAGTATAGAAAGC
0.899

Next:
Provide measured PBM binding z-score value, entry: GCTGCTAGGTCAGGTTGGCCAGCTAACGGGTACG
0.0199

Provide measured PBM binding z-score value, entry: ACAGACAGGTGAGTGAAGGGAACTCAGCTGGACG
-0.679

Provide measured PBM binding z-score value, entry: CCTACTGGGCCTTCAGGTCATTGATATCAACGTT
3.23

Provide measured PBM binding z-score value, entry: GGAGCGAGGGCAAAGTTGATAGCATCTGTCGACG
-0.34

Provide measured PBM binding z-score value, entry: ATCGAAAGGTCGTGAGGTGAGTATTCAGAAAGGC
1.52

Provide measured PBM binding z-score value, entry: CTCGAAAGGTCGCTTGAGGTGAGTATACGGATAA
1.09

Provide measured PBM binding z-score value, entry: AGAATAAGGTTATTAAGATCAGGGAATTGCGGTC
0.933

Provide measured PBM binding z-score value, entry: ATATGTAGGTTAGCTGGGGTTATTCAGACTAGGC
1.11

Provide measured PBM binding z-score value, entry: CCGACTGGGGCAAGGGTTACCATACTCAGTACGA
-0.463

----------
- System: RXRa DBDmut IVT, anti-RXR (DBD mutation: RXRa K156A/R161A, NR concentration 90 nM)
- Experiment summary: PBM binding z-score (relative to random genomic background probes); higher = stronger binding; sequences stand for … in GC…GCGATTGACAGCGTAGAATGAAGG
Property measured: PBM binding z-score

Provide measured PBM binding z-score value, entry: TCGAGTAGGTTAGTCGGGGCATTCAGCCAACATA
0.217

Next:
Provide measured PBM binding z-score value, entry: CATCCAAGGTCATAGGAGGTCAGTGAAGACAGAT
3.91

----------
Below is a list of entries, each paired with its recorded PBM binding z-score value.
- Tested on: RARg:RXRa (NR concentration 270 nM, RXRa partner concentration 90 nM)
- Experiment summary: PBM binding z-score (relative to random genomic background probes); higher = stronger binding; sequences stand for … in GC…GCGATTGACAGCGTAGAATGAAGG
Please state the value as a number alone, without comment.

Some solved entries appear below for comparison.
Provide measured PBM binding z-score value, entry: GCATATAGGTAATACAAGGTGTAAGTCCGATTGT
-0.0828

Provide measured PBM binding z-score value, entry: ATCTCTAGGTAAAAGTTCAATGAATCCCGAGGAT
2.3

Provide measured PBM binding z-score value, entry: AGAATGAGGTTACCAAAGATCAGGCAAACGCTTG
1.97

Provide measured PBM binding z-score value, entry: TCATCTAGGTAAAAGGTGAAAGTCGGTGTGGTAA
1.82

Provide measured PBM binding z-score value, entry: GCTGCTCGGTCAGGTTGGTCAGCTAACGGGTACG
0.691

Provide measured PBM binding z-score value, entry: GCTGCTATGTCAACTGATGGTCAGCTAAAGCTCG
0.506

Next:
Provide measured PBM binding z-score value, entry: CGTGCAAGGTCAAGGTCAGTGAAAGAGACTCGAA
6.85

Provide measured PBM binding z-score value, entry: CTCGAAAGGTCGGTTGAGGTGAGTATACGGATAA
2.63

Provide measured PBM binding z-score value, entry: CCAGACAGGTAAGAAGGTAACTCAGCCTCGATTA
0.201

Provide measured PBM binding z-score value, entry: ATCGAAAGGTCGAGAGGTGAGTATACAGAAAGGC
4.69

Provide measured PBM binding z-score value, entry: GCTAGCAGGCCATTCGGGTCACTCAATGACGGGC
1.85

Provide measured PBM binding z-score value, entry: ACAGACAGGTGATGGAGGTAACTCAGGCTATCAT
0.0912

----------
- System: LXRa:RXRa (NR concentration 270 nM, RXRa partner concentration 90 nM)
- Experiment summary: PBM binding z-score (relative to random genomic background probes); higher = stronger binding; sequences stand for … in GC…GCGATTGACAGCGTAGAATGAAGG
Categorized via PBM binding z-score: low (below 0.5), intermediate (0.5 to below 3), high (3 or more)

Use these answered entries as a reference point.
Category of CCTTACGGGTCACTGACAGGTAATAGCATTTGGA :
high

Category of GGAACCAGGGCATTCGAGTTGATAGCATGGCGAT :
intermediate

Category of GCAGACAGGTGAACCGCAGGTAACTCAGGGTGGC :
low

Category of ATCTCTAGGTAGAAGTTCAGTGAATCCCGAGGAT :
low

Category of ACTATTAGTTGACTTAGGGCAACCTATACGACGC :
low

Category of CCTTCTGGGCCAAAAAGGTCATTGATGCCGATAA :
high

Next:
Category of TTACCAATGTGAAGGTCGTTGATCCCTCTGTAGA :
intermediate

Category of ACTAGTTGGTCAGCTGAGGCCACACACAATTCGG :
low

Category of TCGAGTAGGTTAGTCGGGGCACTCAGCCAACATA :
low

Category of CCCACTGGGGCAAGGTTACCATAACGCACAGCCA :
intermediate

----------
Below is a list of entries, each paired with its recorded PBM binding z-score value.
- Tested on: LXRb:RXRa (NR concentration 270 nM, RXRa partner concentration 90 nM)
- Experiment summary: PBM binding z-score (relative to random genomic background probes); higher = stronger binding; sequences stand for … in GC…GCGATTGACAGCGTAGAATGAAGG
Please state the value as a number alone, without comment.

Some solved entries appear below for comparison.
Provide measured PBM binding z-score value, entry: CCTGCTAGGTCAATTGTCAGCTAAAGCAGCTCGC
1.6

Provide measured PBM binding z-score value, entry: AGAATGAGATTATTAAGATCAGGGAATTGCGGTC
-0.702

Provide measured PBM binding z-score value, entry: TCTTGTAGATCAAGAGGAGGTTAAGAAAGATCGA
0.725

Provide measured PBM binding z-score value, entry: CCTTACGGGTCAAGGCTATAGCACGGGTGGTACG
2.59

Provide measured PBM binding z-score value, entry: ACTTACGGGTCAACGTGGTTATAGCACGCGTATA
3.75

Next:
Provide measured PBM binding z-score value, entry: AGAACGAGGGCACGCTGACTTGATAGCAGAGTAG
0.363

Provide measured PBM binding z-score value, entry: AGAATGAGGTTATACATAGATCAGGGAAGAAAGT
1.56

Provide measured PBM binding z-score value, entry: TCTTGTAGATCGAAGGTTAAGAAAGCCGAAGCCT
0.511

Provide measured PBM binding z-score value, entry: GTACCAAGGTGAATAGGTCGGTGATGAGTAGGCG
0.125

Provide measured PBM binding z-score value, entry: CCTTACAGGTCACTGACAGGTTATAGCATTTGGA
3.88

Provide measured PBM binding z-score value, entry: CAAACTTGGTCACAGAGGTCAAAGTCCGTGCGTA
5.15

Provide measured PBM binding z-score value, entry: CCGACTGGGGCAAGGTTCCCATAACGCACAGCCA
-0.226

----------
- Tested on: PPARg:RXRa 30nM:10nM, anti-RXR (NR concentration 30 nM, RXRa partner concentration 10 nM)
- Experiment summary: PBM binding z-score (relative to random genomic background probes); higher = stronger binding; sequences stand for … in GC…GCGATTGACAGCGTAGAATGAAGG
Property measured: PBM binding z-score
Please state the value as a number alone, without comment.

Some solved entries appear below for comparison.
Provide measured PBM binding z-score value, entry: ATCGAAAGGTCGACGAGGTGGGTATACACCGTTT
0.706

Provide measured PBM binding z-score value, entry: CCTACTGGGCCAAAAAGGTCGTTGATGCCGATAA
0.344

Provide measured PBM binding z-score value, entry: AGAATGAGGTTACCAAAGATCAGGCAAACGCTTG
0.868

Next:
Provide measured PBM binding z-score value, entry: CCTAGCAGGCCAAACTGGGTCACTCAAGGCTTGA
-0.348

Provide measured PBM binding z-score value, entry: GCTCGGAGGACAAGGTCGGAGCTTTGTCCGTAGA
-1.12

Provide measured PBM binding z-score value, entry: TAGCCTAGGTCATTGGGACAGTATAGTACGCATC
1.27
